Here's a batch of molecules along with measured pIC50 for 5HT2B receptors (Homo sapiens (Human), UniProt P41595).
One number for each entry, as −log10 of the molar value.

- molecule: "CC(C)(C)N1CC(CN2CCN(C(c3ccccc3)c3ccccc3)CC2)OC1=O (centres unmarked)"
  tested_on: "5HT2B receptors (Homo sapiens (Human), UniProt P41595)"
  pIC50: 5.73
- molecule: "C=CCN1CC(CN2CCN(C(c3ccccc3)c3ccccc3)CC2)OC1=O (centres unmarked)"
  tested_on: "5HT2B receptors (Homo sapiens (Human), UniProt P41595)"
  pIC50: 6.90
- molecule: "O=C1OC(CN2CCN(C(c3ccccc3)c3ccccc3)CC2)CN1C1CCC1 (centres unmarked)"
  tested_on: "5HT2B receptors (Homo sapiens (Human), UniProt P41595)"
  pIC50: 6.72
- molecule: "O=C1OC(CN2CCN(C(c3ccccc3)c3ccccc3)CC2)CN1C1CC1 (centres unmarked)"
  tested_on: "5HT2B receptors (Homo sapiens (Human), UniProt P41595)"
  pIC50: 6.53

Notebook: CC(C)N1CC(CN2CCN(C(c3ccccc3)c3ccccc3)CC2)OC1=O (centres unmarked) , pIC50 read as 6.56

* * *

Target: 5HT2B receptors (Homo sapiens (Human))
Sequence (P41595 whole entry): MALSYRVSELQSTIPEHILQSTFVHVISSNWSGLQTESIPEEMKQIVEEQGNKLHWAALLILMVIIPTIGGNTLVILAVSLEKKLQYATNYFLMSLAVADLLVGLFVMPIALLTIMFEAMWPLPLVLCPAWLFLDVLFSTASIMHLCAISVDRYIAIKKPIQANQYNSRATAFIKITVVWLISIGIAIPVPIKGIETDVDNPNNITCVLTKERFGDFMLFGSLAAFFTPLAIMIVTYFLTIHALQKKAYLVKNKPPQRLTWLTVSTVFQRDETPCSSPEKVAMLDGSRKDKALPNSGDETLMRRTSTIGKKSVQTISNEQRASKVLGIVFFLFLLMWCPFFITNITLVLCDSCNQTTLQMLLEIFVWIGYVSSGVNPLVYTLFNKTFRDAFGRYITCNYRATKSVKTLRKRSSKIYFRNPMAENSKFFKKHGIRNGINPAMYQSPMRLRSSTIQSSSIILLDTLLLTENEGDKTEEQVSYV
Test: Radiolabel Binding Studies for Serotonin 5HT2B receptors, method 1 ([3H]LSD competition)
Conditions: single concentration 10 uM, inhibition of [3H]LSD binding, read-out: 5-HT2B % inhib @10 uM
Please respond with reported inhibition at 10 µM for every item in the list.
Numbers only, in %.

Here are 6 compounds together with their reported answers.
- compound: "CC(C)N1CC(CN2CCN(C(c3ccccc3)c3ccccc3)CC2)OC1=O (stereo not shown) [Entry 3]"
  measured_attribute: "inhibition at 10 µM"
  scale_unit: "%"
  recorded_value: 84.9
- compound: "O=C1OC(CN2CCN(C(c3ccccc3)c3ccccc3)CC2)CN1C1CC1 (stereo not shown) [Entry 7]"
  measured_attribute: "inhibition at 10 µM"
  scale_unit: "%"
  recorded_value: 87.6
- compound: "O=C1OC(CN2CCN(C(c3ccccc3)c3ccccc3)CC2)CN1C1CCC1 (stereo not shown) [Entry 4]"
  measured_attribute: "inhibition at 10 µM"
  scale_unit: "%"
  recorded_value: 87.3
- compound: "O=C1OC(CN2CCN(C(c3ccccc3)c3ccccc3)CC2)CN1C1CCCCC1 (stereo not shown) [Entry 2]"
  measured_attribute: "inhibition at 10 µM"
  scale_unit: "%"
  recorded_value: 91.4
- compound: "CC(C)(C)N1CC(CN2CCN(C(c3ccccc3)c3ccccc3)CC2)OC1=O (stereo not shown) [Entry 6]"
  measured_attribute: "inhibition at 10 µM"
  scale_unit: "%"
  recorded_value: 59.3
- compound: "C=CCN1CC(CN2CCN(C(c3ccccc3)c3ccccc3)CC2)OC1=O (stereo not shown) [Entry 1]"
  measured_attribute: "inhibition at 10 µM"
  scale_unit: "%"
  recorded_value: 91.1

Notebook: O=C1OC(CN2CCN(C(c3ccccc3)c3ccccc3)CC2)CN1C1CCCC1 (stereo not shown) [Entry 5] , inhibition at 10 µM read as 94.1
